Entry source: ChEMBL document CHEMBL1157539

System: Plasmodium falciparum
PROCEDURE SUMMARY: GSK_TCMDC: Inhibition of Plasmodium falciparum 3D7 in whole erythrocytes, using parasite LDH activity as an index of growth.
Type: functional, organism-based
COND: Plasmodium falciparum, 3D7
// assign 1.0 if XC50 falls strictly below 0.8 µM, else 0.0 (ties count as 0.0)

- COMPOUND: "CC(=O)Nc1cccc(C(=O)Nc2ccc(-c3ccc(-c4nc5cccc(C)c5[nH]4)s3)cc2)c1"
  CATEGORY LABEL: 0.0

# evaluate next
# input Does the reported XC50 of the following compound sit strictly below 0.8 µM? Cc1ccc(CN2CCCN(Cc3cccc(NC(=O)c4ccc(-c5ccccc5)cc4)c3)CC2)cc1C
# output 0.0

----------
Form field: XC50 (one value per entry).
System: Plasmodium falciparum
PROCEDURE SUMMARY: GSK_TCMDC: Inhibition of Plasmodium falciparum 3D7 in whole erythrocytes, using parasite LDH activity as an index of growth.
Type: functional, organism-based
COND: Plasmodium falciparum, 3D7
Record the result as a number with its unit.

- COMPOUND: "CC(C)C[C@H](NC(=O)c1cc2ccccc2s1)C(=O)N[C@H]1CCN(Cc2ccc(OC3CCN(C)C3)c(Cl)c2)C1 (stereo not given in full)"
  RESULT: "782 nM"
- COMPOUND: "COc1ccc2nccc(N3CCC(CCNCc4ccc5c(n4)NC(=O)CO5)CC3)c2c1"
  RESULT: "705 nM"
- COMPOUND: "COc1ccc(CN(C)Cc2cc(C(C)C)c(C)cc2O)cc1F"
  RESULT: "654 nM"
- COMPOUND: "COc1ccc2c(c1)nc(CNC(=N)N)n2Cc1ccc(Cl)cc1"
  RESULT: "359 nM"
- COMPOUND: "O=S(=O)(c1ccc(OCc2ccc(Cl)cc2)cc1)c1cc2c(c(-c3ccc(F)cc3)c1)CCN(CC1CC1)CC2"
  RESULT: "1120 nM"
- COMPOUND: "CN(CCCc1c[nH]c2ccccc12)CC1CCN(C(=O)/C=C/c2ccc(Cl)c(Cl)c2)CC1"
  RESULT: "747 nM"
- COMPOUND: "c1ccc(-c2n[nH]cc2Nc2ccnc3ccccc23)nc1"
  RESULT: "819 nM"
- COMPOUND: "CC1C(c2cccc(Cl)c2)OCC(C)(C)N1C(=O)CCN1CCCCC1 (stereo not given)"
  RESULT: "923 nM"

# input Plasmodium falciparum / XC50 / O=C1C[C@@H]([S+]([O-])Cc2nccs2)N1CCOCCCCCCc1ccc(Cl)cc1 (stereo not given in full) : value?
# output 1020 nM

# input Which XC50 is reported with Plasmodium falciparum for this entry: CCC1(C)CC(CCNCc2ccccc2O)(c2ccc(C)cc2)CCO1 (stereo not given) ?
# output 38.8 nM

# input Quick check: XC50 on Plasmodium falciparum, item O=C(Nc1ccc(N2CCN(C(=O)/C=C/c3ccccc3)CC2)c(Cl)c1)c1ccc([N+](=O)[O-])o1 ?
# output 859 nM

# input Could you share what XC50 was measured for Oc1ccc2ccccc2c1C=NNc1nc(=Nc2ccccc2)[nH]c(=Nc2ccccc2)[nH]1 , tested on Plasmodium falciparum?
# output 667 nM

# input Reported XC50 for Plasmodium falciparum, given Cc1cc(NCCC(=O)Nc2ccccc2)nc(NCCOc2ccccc2)n1 ?
# output 1140 nM
